Recorded EC50 by entry
- measured.target: peroxisome proliferator-activated receptor gamma (PPARγ) (Homo sapiens)
- Construct: label (kind not specified); Cerep (France), contract assay
- Sequence (P37231 whole entry): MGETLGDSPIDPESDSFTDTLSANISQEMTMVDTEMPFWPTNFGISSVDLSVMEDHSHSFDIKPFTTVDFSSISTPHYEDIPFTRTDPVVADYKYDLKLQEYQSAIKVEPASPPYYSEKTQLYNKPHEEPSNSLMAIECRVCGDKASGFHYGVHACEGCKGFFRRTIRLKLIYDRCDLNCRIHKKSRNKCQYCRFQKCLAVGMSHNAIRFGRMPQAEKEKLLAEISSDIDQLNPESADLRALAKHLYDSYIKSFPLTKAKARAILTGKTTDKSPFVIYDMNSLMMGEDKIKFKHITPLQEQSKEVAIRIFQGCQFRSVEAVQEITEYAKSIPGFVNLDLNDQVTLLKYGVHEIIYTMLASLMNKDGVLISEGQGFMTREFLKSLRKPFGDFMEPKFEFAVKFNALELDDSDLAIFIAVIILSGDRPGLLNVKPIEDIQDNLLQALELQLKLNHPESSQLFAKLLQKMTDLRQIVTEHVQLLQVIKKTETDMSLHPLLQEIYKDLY
- Sequence (Q15648 whole entry partner): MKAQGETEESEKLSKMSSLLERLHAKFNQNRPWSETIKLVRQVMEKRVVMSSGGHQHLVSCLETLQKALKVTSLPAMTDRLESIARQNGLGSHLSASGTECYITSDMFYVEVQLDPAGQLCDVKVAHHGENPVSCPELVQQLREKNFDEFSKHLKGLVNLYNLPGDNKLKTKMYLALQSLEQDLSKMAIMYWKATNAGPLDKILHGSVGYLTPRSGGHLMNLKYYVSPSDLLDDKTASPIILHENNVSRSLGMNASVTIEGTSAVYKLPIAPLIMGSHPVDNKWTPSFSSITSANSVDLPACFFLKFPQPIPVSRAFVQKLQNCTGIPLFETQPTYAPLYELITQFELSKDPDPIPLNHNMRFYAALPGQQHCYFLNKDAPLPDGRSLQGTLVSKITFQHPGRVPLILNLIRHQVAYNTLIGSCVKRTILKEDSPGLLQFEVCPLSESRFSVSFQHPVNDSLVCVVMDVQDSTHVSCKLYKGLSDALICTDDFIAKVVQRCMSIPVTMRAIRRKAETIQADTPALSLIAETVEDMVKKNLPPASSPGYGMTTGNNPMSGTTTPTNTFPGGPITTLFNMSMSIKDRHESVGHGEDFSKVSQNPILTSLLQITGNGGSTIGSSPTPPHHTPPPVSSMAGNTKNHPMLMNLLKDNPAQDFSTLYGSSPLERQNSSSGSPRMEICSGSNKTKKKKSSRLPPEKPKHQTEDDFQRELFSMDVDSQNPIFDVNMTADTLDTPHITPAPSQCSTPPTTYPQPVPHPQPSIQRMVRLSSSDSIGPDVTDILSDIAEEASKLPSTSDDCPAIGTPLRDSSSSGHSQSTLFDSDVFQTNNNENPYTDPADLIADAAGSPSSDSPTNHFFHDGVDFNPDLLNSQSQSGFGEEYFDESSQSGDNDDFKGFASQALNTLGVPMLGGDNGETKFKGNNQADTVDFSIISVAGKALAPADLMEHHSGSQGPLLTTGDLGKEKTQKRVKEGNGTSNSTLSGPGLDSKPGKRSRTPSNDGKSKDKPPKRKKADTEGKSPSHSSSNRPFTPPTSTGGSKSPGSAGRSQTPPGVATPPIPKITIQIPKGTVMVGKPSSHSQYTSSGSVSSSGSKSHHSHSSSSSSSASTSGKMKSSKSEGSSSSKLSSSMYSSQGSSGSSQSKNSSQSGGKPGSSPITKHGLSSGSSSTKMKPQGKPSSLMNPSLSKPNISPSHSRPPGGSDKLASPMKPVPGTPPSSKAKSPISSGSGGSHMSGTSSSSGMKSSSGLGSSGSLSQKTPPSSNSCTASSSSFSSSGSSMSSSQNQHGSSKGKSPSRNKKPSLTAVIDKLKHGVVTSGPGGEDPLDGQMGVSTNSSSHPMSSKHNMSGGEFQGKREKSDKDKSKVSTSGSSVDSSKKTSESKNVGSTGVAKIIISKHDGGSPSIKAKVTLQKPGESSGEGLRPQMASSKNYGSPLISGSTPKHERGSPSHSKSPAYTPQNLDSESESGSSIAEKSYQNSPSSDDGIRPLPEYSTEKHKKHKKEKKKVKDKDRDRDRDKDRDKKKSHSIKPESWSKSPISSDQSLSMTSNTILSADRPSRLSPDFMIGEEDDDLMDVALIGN
- procedure.text: TRAP220 PPARγ coactivator recruitment assay (Cerep)
- test.conditions: TRAP220 coactivator recruitment; percent of control (10 μM rosiglitazone); four-parameter fit; read-out: EC50, PPARγ agonist activity
test.readout: EC50 (µM)

compound	test.readout	measurement
[2H]C1(Cc2ccc(OCc3nc4ccc(Oc5cc(C)c(N)c(C)c5)cc4n3C)cc2)SC(=O)NC1=O (single isomer, unassigned; (+)) [d+]	EC50	0.0487
[2H]C1(Cc2ccc(OCc3nc4ccc(Oc5cc(C)c(N)c(C)c5)cc4n3C)cc2)SC(=O)NC1=O (single isomer, unassigned; (-)) [d−]	EC50	0.0074
